Every entry's value here was drawn from patent US12168673B2.

- protocolDetails: PK study in rats (plasma)
- Format: in vivo
- conditionParameters: rat, plasma, iv, 83 mg/kg, rats, delivered by IV; read-out: T1/2 of degradation in rat plasma (converted)
valueKind: half-life

Give half-life for the following compound: O=C(OC1O[C@H](CO)[C@@H](O)[C@H]1O)c1cccnc1 (stereo partly shown) [Compound 100]
1 h

---

- protocolDetails: in vitro
- conditionParameters: human, plasma, % Bound in plasma
valueKind: fraction unbound at 5 h, 10 μM
Please give only the number in your answer, with no unit.

Give fraction unbound at 5 h, 10 μM for the following compound: CC(=O)CC(c1ccccc1)c1c(O)c2ccccc2oc1=O (stereo not shown) [Warfarin, reference compound]
0.0044

---

We begin with a simple list: items and their reported recovery.
- protocolDetails: Caco-2 permeability assay
- conditionParameters: human, Caco-2, % Recovery A to B
The reply should contain only the number, in %.

Examples with their reported recovery follow.
O=c1[nH]c2ccccc2n1CCCN1CCC(n2c(=O)[nH]c3cc(Cl)ccc32)CC1 [Domperidone, reference compound] : 61.8
NC(=O)N1c2ccccc2C=Cc2ccccc21 [Carbamazepine, reference compound] : 89.3
O=C(OC1O[C@H](CO)[C@@H](O)[C@H]1O)c1cccnc1 (some centres unmarked) [Compound 100] : 98.5
O=C(OC[C@H]1OC(O)[C@H](O)[C@@H]1O)c1ccccn1 (some centres unmarked) [Compound 102] : 94.9

Please turn your attention to the following entry.
Give recovery for the following compound: COC(=O)[C@@H](C)NP(=O)(OC[C@H]1OC(OC(=O)c2cccnc2)[C@H](O)[C@@H]1O)Oc1ccccc1 (some centres unmarked) [Compound 101]
86.5

---

We begin with a simple list: items and their reported half-life at 1 μM.
- protocolDetails: Human hepatocyte clearance
- Format: in vitro ADME
- conditionParameters: human hepatocytes, 1 μM, 0-90 min; read-out: T½
The reply should contain only the number, in min.

Examples with their reported half-life at 1 μM follow.
COC(=O)[C@@H](C)N[P@](=O)(OC[C@H]1OC(OC(=O)c2cccnc2)[C@H](O)[C@@H]1O)Oc1ccccc1 (single isomer, unassigned) : 22.2
COC(=O)[C@@H](C)N[P@@](=O)(OC[C@H]1OC(OC(=O)c2cccnc2)[C@H](O)[C@@H]1O)Oc1ccccc1 (single isomer, unassigned) : 48.1
COC(=O)[C@@H](C)NP(=O)(OC[C@H]1OC(OC(=O)c2cccnc2)[C@H](O)[C@@H]1O)Oc1ccccc1 (stereo partly shown) : 12.8

Please turn your attention to the following entry.
Give half-life at 1 μM for the following compound: C[C@]12CC[C@H]3[C@@H](CCC4=CC(=O)CC[C@@]43C)[C@@H]1CC[C@@H]2O [Testosterone, reference compound]
9.14

---

- protocolDetails: PK study in rats (plasma)
- Format: in vivo
- conditionParameters: rat, plasma, iv, 83 mg/kg, rats, Group 2: compound 100 83 mg/kg IV; analyte compound 100 in plasma; read-out: T1/2 (converted)
valueKind: half-life

Give half-life for the following compound: O=C(OC1O[C@H](CO)[C@@H](O)[C@H]1O)c1cccnc1 (stereo partly shown)
1.01 h

---

- protocolDetails: Kinetic solubility
- Assay type: physicochemical
- conditionParameters: aqueous buffer, kinetic from dmso stock, 0.1 M phosphate buffered saline pH 7.4, target 100 μM, 1.5 h, read-out: Mean Solubility
Classification field: True = solubility at 1.5 h at or over 100 µM; False = solubility at 1.5 h under 100 µM.

CC(C(=O)O)c1ccc(-c2ccccc2)c(F)c1 (centres unmarked) [Flurbiprofen, reference compound] : True
CCCSc1ccc2nc(NC(=O)OC)[nH]c2c1 [Albendazole, reference compound] : False

Decide: is the reported value of solubility at 1.5 h for COC(=O)[C@@H](C)NP(=O)(OC[C@H]1OC(OC(=O)c2cccnc2)[C@H](O)[C@@H]1O)Oc1ccccc1 (some centres unmarked) equal to or greater than 100 µM?
True

Decide: is the reported value of solubility at 1.5 h for O=C(OC[C@H]1OC(O)[C@H](O)[C@@H]1O)c1ccccn1 (some centres unmarked) equal to or greater than 100 µM?
True

Decide: is the reported value of solubility at 1.5 h for O=C(OC1O[C@H](CO)[C@@H](O)[C@H]1O)c1cccnc1 (some centres unmarked) equal to or greater than 100 µM?
False
